target: human plasma BChE (Homo sapiens, UniProt P06276); construct: 25 μL/well of a 1:450 diluted solution of pooled human plasma; from tissue; host or cells: pooled human plasma, diluted 1:450, BChE not purified; assay: biochemical; details: inhibition constant (Ki) against human BChE, high substrate range, up to 5 mM
Sequence (P06276 29-602): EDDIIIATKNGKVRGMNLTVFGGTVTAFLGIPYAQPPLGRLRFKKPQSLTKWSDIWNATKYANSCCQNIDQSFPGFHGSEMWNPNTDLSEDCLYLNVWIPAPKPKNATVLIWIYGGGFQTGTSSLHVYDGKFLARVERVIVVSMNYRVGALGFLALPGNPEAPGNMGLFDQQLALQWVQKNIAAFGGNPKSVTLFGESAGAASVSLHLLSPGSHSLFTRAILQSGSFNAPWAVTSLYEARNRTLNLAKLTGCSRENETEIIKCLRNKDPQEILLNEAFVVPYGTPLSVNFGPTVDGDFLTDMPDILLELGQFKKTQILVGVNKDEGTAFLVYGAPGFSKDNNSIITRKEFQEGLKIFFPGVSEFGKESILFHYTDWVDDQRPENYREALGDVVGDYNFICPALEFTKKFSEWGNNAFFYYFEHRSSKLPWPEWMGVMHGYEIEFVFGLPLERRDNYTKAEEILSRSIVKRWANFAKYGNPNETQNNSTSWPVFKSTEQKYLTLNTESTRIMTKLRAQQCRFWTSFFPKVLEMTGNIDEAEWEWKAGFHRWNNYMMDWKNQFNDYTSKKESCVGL
Recorded metric: Ki (µM)
One number for each entry, in µM.

CCN(CC)C(C)CN1c2ccccc2Sc2ccccc21 (stereo not drawn) : 0.15
CN(C)CCC[C@@]1(c2ccc(F)cc2)OCc2cc(C#N)ccc21 : 203

input: Find the measured Ki of CN(C)CCCC1(c2ccc(F)cc2)OCc2cc(C#N)ccc21 (stereo not drawn) and report it.
output: 42

---

biological target: human plasma BChE (Homo sapiens, UniProt P06276); construct: 25 μL/well of a 1:450 diluted solution of pooled human plasma; from tissue; host or cells: pooled human plasma, diluted 1:450, BChE not purified; assay: biochemical; settings: high substrate range, up to 5 mM
Recorded metric: mode of inhibition of BChE

CN(C)CCC[C@@]1(c2ccc(F)cc2)OCc2cc(C#N)ccc21 : mixed-competitive
CCN(CC)C(C)CN1c2ccccc2Sc2ccccc21 (centres unmarked) : mixed-competitive
CN(C)CCCC1(c2ccc(F)cc2)OCc2cc(C#N)ccc21 (centres unmarked) : mixed-competitive

---

molecular target: human AChE (Homo sapiens, UniProt P22303); construct: purchased Sigma C1682; assay: IC50 and enzyme inhibition kinetic analyses on AChE; type: biochemical
Sequence (P22303 32-614): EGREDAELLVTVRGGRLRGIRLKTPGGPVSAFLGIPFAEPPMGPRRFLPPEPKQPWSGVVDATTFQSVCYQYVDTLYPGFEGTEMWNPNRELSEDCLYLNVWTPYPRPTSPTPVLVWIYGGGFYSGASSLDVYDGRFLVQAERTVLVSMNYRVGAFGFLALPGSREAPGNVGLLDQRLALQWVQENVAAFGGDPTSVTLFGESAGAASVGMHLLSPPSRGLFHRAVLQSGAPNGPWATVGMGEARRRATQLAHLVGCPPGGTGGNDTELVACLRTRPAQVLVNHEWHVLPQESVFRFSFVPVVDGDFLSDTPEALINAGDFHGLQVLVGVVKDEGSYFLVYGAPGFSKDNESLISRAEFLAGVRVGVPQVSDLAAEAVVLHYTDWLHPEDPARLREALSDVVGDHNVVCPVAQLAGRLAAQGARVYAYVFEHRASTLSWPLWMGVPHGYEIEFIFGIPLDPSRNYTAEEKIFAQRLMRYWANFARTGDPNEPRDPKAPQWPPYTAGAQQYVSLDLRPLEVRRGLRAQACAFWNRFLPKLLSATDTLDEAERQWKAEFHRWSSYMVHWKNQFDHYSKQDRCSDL
Recorded metric: pKi
Give bare numbers, as −log10 of the molar value.

CN(C)CCCC1(c2ccc(F)cc2)OCc2cc(C#N)ccc21 (centres unmarked) : 4.23

Attention now turns to another entry.
input: System human AChE (Homo sapiens, UniProt P22303). Read-out pKi. Item CN(C)CCC[C@@]1(c2ccc(F)cc2)OCc2cc(C#N)ccc21 . Report value.
output: 4.48

---

target: human plasma BChE (Homo sapiens, UniProt P06276); construct: 25 μL/well of a 1:450 diluted solution of pooled human plasma; from tissue; host or cells: pooled human plasma, diluted 1:450, BChE not purified; assay: biochemical; conditions: inhibition constant (Ki) against human BChE, micromolar substrate range (up to 0.5 mM)
Recorded metric: Ki (nM)
One number for each entry, in nM.

input: Find the measured Ki of CNCC[C@H](Oc1cccc2ccccc12)c1cccs1 and report it.
output: 210
